Target: T1, recombinant human CD73-His extracellular domain protein (soluble dimer) (human, UniProt P21589 27-547)
T1 sequence: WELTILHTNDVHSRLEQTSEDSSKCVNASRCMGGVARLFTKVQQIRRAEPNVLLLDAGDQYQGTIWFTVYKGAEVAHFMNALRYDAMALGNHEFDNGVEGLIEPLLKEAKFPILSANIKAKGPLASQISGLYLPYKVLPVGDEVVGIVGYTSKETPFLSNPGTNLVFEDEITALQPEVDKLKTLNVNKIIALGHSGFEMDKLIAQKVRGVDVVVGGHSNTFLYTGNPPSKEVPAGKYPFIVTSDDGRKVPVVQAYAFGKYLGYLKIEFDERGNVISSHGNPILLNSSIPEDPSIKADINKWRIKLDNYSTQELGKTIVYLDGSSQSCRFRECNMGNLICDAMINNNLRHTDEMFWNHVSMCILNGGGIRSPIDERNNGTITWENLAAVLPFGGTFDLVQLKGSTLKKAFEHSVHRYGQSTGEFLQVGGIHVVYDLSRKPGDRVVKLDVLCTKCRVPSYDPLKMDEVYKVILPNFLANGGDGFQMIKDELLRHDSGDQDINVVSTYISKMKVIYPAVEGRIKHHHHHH
Experiment: cell-based or functional assay
Parameter: EC50 for CD73 blockade (enzymatic activity of soluble recombinant human CD73-his). Scope: all listed entries.
MEASUREMENT LABEL: EC50 for CD73 blockade (enzymatic activity of soluble recombinant human CD73-his) (µg/mL)

BINDER	READOUT UNITS	MEAS VALUE
antibody 3C12 (antibody, human IgG1, V domains shown, Produced as chimeric human IgG1 with heavy chain N297Q (Kabat EU numbering); RTVAAP)) VH: QIQLQQSGPELVKPGASVKVSCKASGYAFASYNMNWVKQSHGKSLDWIGYIDPYNGGSSYNLTFKGKATLTVDKSSTTAYMHLNSLTSEDSAVYYCARGYGNYKAWFAYWGQGTLVTVSA VL: DVVMTQTPKFLLVSAGDRVTITCKASQSVSNDVAWYQQKPGQSPKLLIYYASTRYTGVPDRFTGSGYGTDFTFTISTVQAEDLAVYFCQQDYSSLTFGAGTKLELKR	µg/mL	0.41
antibody 11E1 (antibody, human IgG1, V domains shown, Produced as chimeric human IgG1 with heavy chain N297Q (Kabat EU numbering); also called 1E11) VH: EIQLQQSGPELVKPGASVKVSCKASGYAFTSYNMYWVKQSHGKSLEWIGYIDPYNGGTSYNQKFKGKATLTVDKSSSTAYMHLNSLTSEDSAVYYCARGYGNYKAWFAYWGQGTLVTVSA VL: DAVMTQTPKFLLVSAGDRVTITCKASQSVTNDVAWYQQKPGQSPKLLIYYASNRYTGVPDRFTGSGYGTDFTFTISTVQAEDLAVYFCQQDYSSLTFGAGTKLELK	µg/mL	0.41
antibody 8C7 (antibody, human IgG1, V domains shown, Produced as chimeric human IgG1 with heavy chain N297Q (Kabat EU numbering); RTVAAP)) VH: EVQLQQSGPELVKPGASVKVSCKASGYAFASYNMNWVKQSHGKSLDWIGYIDPYNGGSSYNLTFKGKATLTVDKSSTTAYMHLNSLTSEDSAVYYCARGYGNYKAWFAYWGQGTLVTVSA VL: SIVMTPTPKFLLVSAGDRVTITCKASQSVSNDVAWYQQKPGQSPKLLIYYASTRYTGVPDRFTGSGYGTDFTFTISTVQAEDLAVYFCQQDYSSLTFGAGTKLELKR	µg/mL	1.29
antibody 6E1 (antibody, human IgG1, V domains shown, Produced as chimeric human IgG1 with heavy chain N297Q (Kabat EU numbering)) VH: EFQLQQSGPELVKPGASVKVSCKASGYAFTSYNMYWVKQSHGKRLEWIGYIDPYNGGSSYNQKFKGKATLTVDKSSSTAYMHLNNLTSEDSAVYYCARGYNNYKAWFAYWGQGTLVTVSA VL: SIVMTQTPKFLLVSAGDRVTITCKASQSVTNDVAWYQQKPGQSPKLLIYYASNRYTGVPDRFTGSGYGTDFTFTISTMQAEDLAVYFCQQDYSSLTFGAGTKLELK	µg/mL	0.33
